Provenance of the data: ChEMBL document CHEMBL1201862

- Tested on: SNB-19
- procedure.summary: NCI tumour cell line growth inhibition, 48 h
Activity calls are given as the source filed them. Rule as the data show it: active = GI50 up to about 1.1 µM and inactive = higher.
// classify into active, inactive

COc1ccc2c(c1)C(=O)OCCC2
inactive

Per the records of this test, what outcome belongs to "CCN(CC)CCN(C)CCc1ccc(Br)cc1" ? inactive

Each compound tested received a call. Report the one for "C[C@H]1CC[C@@H]2[C@@H](C)C[C@H]3[C@@H]4C(C)(C)OC(=O)[C@]4(C)C(=O)[C@@]23C1=O" . inactive

Tell me the recorded outcome of this test for CN1c2ccccc2C2=C(c3ccccc3)CC[C@@H](C(=O)N3C4CC5CC[C@@]4(CS3(=O)=O)C5(C)C)[C@@H]21 (some centres undefined) . inactive

Identify the outcome logged in this assay for the compound shown: "COc1ccc2c(c1)CCc1c(CO)c(COC(=O)NC(C)C)n(C)c1-2" inactive

Field: outcome | Entry: N#CC1C(=S)NC(c2ccccc2)=CC12CCCCC2 (centres undefined) inactive

# fetch the recorded call for "CCOC(=O)c1c2ccccc2n2c(=O)n(-c3ccc(OC)cc3)nnc12" here inactive

Assay result, entry "CCOc1cc2c(cc1O)C=C[C@@H]1[C@@H]2CC[C@]2(C)[C@@H](O)CC[C@@H]12" — outcome? inactive

Name the outcome recorded for COC(=O)/C(C#N)=C1\CCC(OC)N1C (centres undefined) in the assay. inactive
